# Assay Details: AUC (0 to infinity) in Sprague-Dawley rat at 2 mg/kg, iv
# Format: ADME, organism-based
# Set-up: time infinity, dose 2 mg/kg, route intravenous
# Condition Notes: plasma
Outcome Measure: AUC(0-inf)
In your response, put the unit directly after the numeric value.

Example entries and their recorded answers appear below.
Smiles Entry | AUC(0-inf)
CN1CCN(Cc2ccc(C(=O)Nc3cc(-c4ccc(CNC(=O)Nc5cc(C(C)(C)C)on5)cc4)n[nH]3)cc2)CC1 | 2120 ng·h/mL
CC(C)(C)c1cc(NC(=O)NCc2ccc(-c3cc(NC(=O)c4ccc(OCCN5CCOCC5)cc4)[nH]n3)cc2)no1 | 3140 ng·h/mL
Cc1cc(-c2cc(NC(=O)c3ccc(CN4CCN(C)CC4)cc3)[nH]n2)ccc1NC(=O)Nc1cc(C(C)(C)C)on1 | 3020 ng·h/mL

From here, focus on the item given below.
Problem: Fill in: AUC(0-inf) of "Cc1cc(-c2cc(NC(=O)c3ccc(OCCN4CCOCC4)cc3)[nH]n2)ccc1NC(=O)Nc1cc(C(C)(C)C)on1" is ___
Result: 2860 ng·h/mL
